- target.entity: Prostaglandin E2 receptor EP4 subtype (Rattus norvegicus, UniProt P43114)
- Sequence (P43114 whole entry): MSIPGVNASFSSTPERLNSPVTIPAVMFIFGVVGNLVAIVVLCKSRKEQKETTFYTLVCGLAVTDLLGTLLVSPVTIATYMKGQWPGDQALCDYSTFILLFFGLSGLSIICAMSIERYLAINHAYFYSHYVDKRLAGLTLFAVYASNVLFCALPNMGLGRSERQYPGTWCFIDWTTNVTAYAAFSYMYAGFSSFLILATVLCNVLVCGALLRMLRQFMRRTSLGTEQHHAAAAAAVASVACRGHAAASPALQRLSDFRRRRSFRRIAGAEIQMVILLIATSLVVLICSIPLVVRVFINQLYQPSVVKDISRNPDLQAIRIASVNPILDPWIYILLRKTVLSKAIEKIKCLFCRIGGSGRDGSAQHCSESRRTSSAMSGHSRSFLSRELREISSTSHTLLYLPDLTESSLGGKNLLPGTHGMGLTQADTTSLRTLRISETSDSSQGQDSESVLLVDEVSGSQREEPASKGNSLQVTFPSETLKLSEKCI
- assay: Agonist activity at rat EP4 receptor expressed in CHO cells assessed as cAMP production after 10 mins by radioimmunoassay
Recorded pEC50 values for a group of compounds are listed next.
In plain terms, pEC50 is the concentration in mol/L turned into minus its base-10 logarithm.

Solved cases below.
[
  {
    "entry.smiles": "O=C(O)CCCSCCN1C(=O)CC[C@@H]1/C=C/[C@@H](O)Cc1cccc(-c2ccccn2)c1",
    "target.entity": "Prostaglandin E2 receptor EP4 subtype (Rattus norvegicus, UniProt P43114)",
    "observable": "pEC50",
    "numeric.value": 7.07
  },
  {
    "entry.smiles": "O=C(O)CCCSCCN1C(=O)CC[C@@H]1/C=C/[C@@H](O)Cc1cccc(OCc2ccncc2)c1",
    "target.entity": "Prostaglandin E2 receptor EP4 subtype (Rattus norvegicus, UniProt P43114)",
    "observable": "pEC50",
    "numeric.value": 7.34
  },
  {
    "entry.smiles": "O=C(O)CCCSCCN1C(=O)CC[C@@H]1/C=C/[C@@H](O)Cc1cccc(OCc2cccnc2)c1",
    "target.entity": "Prostaglandin E2 receptor EP4 subtype (Rattus norvegicus, UniProt P43114)",
    "observable": "pEC50",
    "numeric.value": 7.72
  },
  {
    "entry.smiles": "Cc1ccc(-c2cccc(C[C@H](O)/C=C/[C@H]3CCC(=O)N3CCSc3nc(C(=O)O)cs3)c2)c(C)c1",
    "target.entity": "Prostaglandin E2 receptor EP4 subtype (Rattus norvegicus, UniProt P43114)",
    "observable": "pEC50",
    "numeric.value": 6.80
  }
]

// next item, pEC50 requested
Inquiry: State pEC50 (Prostaglandin E2 receptor EP4 subtype (Rattus norvegicus, UniProt P43114)) of Cc1ccc2nc(-c3cccc(C[C@H](O)/C=C/[C@H]4CCC(=O)N4CCSc4nc(C(=O)O)cs4)c3)oc2c1 .
Reply text: 8.80

* * *

Please consider the recorded Ki for Prostaglandin E2 receptor EP4 subtype (Mus musculus, UniProt P32240) in what follows.
Numbers only here, please. The scale is nM.

Solved cases below.
[
  {
    "entry.smiles": "Cc1ccc(-c2cccc(C[C@H](O)/C=C/[C@H]3CCC(=O)N3CCSc3nc(C(=O)O)cs3)c2)cc1",
    "Ki [nM]": 0.43
  },
  {
    "entry.smiles": "Cc1ccc(-c2cccc(C[C@H](O)/C=C/[C@H]3CCC(=O)N3CCSc3nc(C(=O)O)cs3)c2)c(C)c1",
    "Ki [nM]": 3.5
  },
  {
    "entry.smiles": "O=C(O)CCCSCCN1C(=O)CC[C@@H]1/C=C/[C@@H](O)Cc1cccc(-c2ccccc2)c1",
    "Ki [nM]": 1.1
  }
]

// next item, Ki requested
Inquiry: Supply Ki value. Item: COc1ccc(-c2cccc(C[C@H](O)/C=C/[C@H]3CCC(=O)N3CCSc3nc(C(=O)O)cs3)c2)cc1
Reply text: 1.7

* * *

Please consider the recorded pKi for UniProt P32240 in what follows.
In plain terms, pKi is the concentration in mol/L turned into minus its base-10 logarithm.

Solved cases below.
[
  {
    "entry.smiles": "O=C(O)CCCSCCN1C(=O)CC[C@@H]1/C=C/[C@@H](O)Cc1cccc(OCc2ccccn2)c1",
    "pKi": 9.05
  },
  {
    "entry.smiles": "O=C(O)CCCSCCN1C(=O)CC[C@@H]1/C=C/[C@@H](O)Cc1cccc(-c2nc3ccccc3s2)c1",
    "pKi": 9.44
  },
  {
    "entry.smiles": "O=C(O)CCCSCCN1C(=O)CC[C@@H]1/C=C/[C@@H](O)Cc1cccc(-c2ccc3[nH]ccc3c2)c1",
    "pKi": 9.55
  }
]

// next item, pKi requested
Inquiry: State pKi (UniProt P32240) of Cc1cccc2oc(-c3cccc(C[C@H](O)/C=C/[C@H]4CCC(=O)N4CCSc4nc(C(=O)O)cs4)c3)nc12 .
Reply text: 9.68

* * *

Please consider the recorded pKi for Prostaglandin E2 receptor EP2 subtype (Mus musculus, UniProt Q62053) in what follows.
In plain terms, pKi is the concentration in mol/L turned into minus its base-10 logarithm.

[
  {
    "entry.smiles": "O=C(O)c1csc(SCCN2C(=O)CC[C@@H]2/C=C/[C@@H](O)Cc2cccc(-c3nc4cc(Cl)ccc4o3)c2)n1",
    "target.entity": "Prostaglandin E2 receptor EP2 subtype (Mus musculus, UniProt Q62053)",
    "observable": "pKi",
    "numeric.value": 7.17
  },
  {
    "entry.smiles": "O=C(O)CCCSCCN1C(=O)CC[C@@H]1/C=C/[C@@H](O)Cc1cccc(-c2nc3ccccc3o2)c1",
    "target.entity": "Prostaglandin E2 receptor EP2 subtype (Mus musculus, UniProt Q62053)",
    "observable": "pKi",
    "numeric.value": 5.77
  },
  {
    "entry.smiles": "O=C(O)CCCSCCN1C(=O)CC[C@@H]1/C=C/[C@@H](O)Cc1cccc(-c2cc3ccccc3o2)c1",
    "target.entity": "Prostaglandin E2 receptor EP2 subtype (Mus musculus, UniProt Q62053)",
    "observable": "pKi",
    "numeric.value": 5.70
  },
  {
    "entry.smiles": "O=C(O)CCCSCCN1C(=O)CC[C@@H]1/C=C/[C@@H](O)Cc1cccc(-c2ccc3ccccc3c2)c1",
    "target.entity": "Prostaglandin E2 receptor EP2 subtype (Mus musculus, UniProt Q62053)",
    "observable": "pKi",
    "numeric.value": 5.68
  },
  {
    "entry.smiles": "Cc1cc(C)c2oc(-c3cccc(C[C@H](O)/C=C/[C@H]4CCC(=O)N4CCSc4nc(C(=O)O)cs4)c3)nc2c1",
    "target.entity": "Prostaglandin E2 receptor EP2 subtype (Mus musculus, UniProt Q62053)",
    "observable": "pKi",
    "numeric.value": 7.62
  },
  {
    "entry.smiles": "O=C(O)c1csc(SCCN2C(=O)CC[C@@H]2/C=C/[C@@H](O)Cc2cccc(-c3nc4cc(Cl)ccc4s3)c2)n1",
    "target.entity": "Prostaglandin E2 receptor EP2 subtype (Mus musculus, UniProt Q62053)",
    "observable": "pKi",
    "numeric.value": 7.66
  },
  {
    "entry.smiles": "Cc1ccc(-c2cccc(C[C@H](O)/C=C/[C@H]3CCC(=O)N3CCSc3nc(C(=O)O)cs3)c2)c(C)c1",
    "target.entity": "Prostaglandin E2 receptor EP2 subtype (Mus musculus, UniProt Q62053)",
    "observable": "pKi",
    "numeric.value": 7.64
  },
  {
    "entry.smiles": "O=C(O)c1csc(SCCN2C(=O)CC[C@@H]2/C=C/[C@@H](O)Cc2cccc(-c3cc4ccccc4o3)c2)n1",
    "target.entity": "Prostaglandin E2 receptor EP2 subtype (Mus musculus, UniProt Q62053)",
    "observable": "pKi",
    "numeric.value": 8.68
  }
]

Inquiry: Supply pKi value. Item: Cc1cccc2oc(-c3cccc(C[C@H](O)/C=C/[C@H]4CCC(=O)N4CCSc4nc(C(=O)O)cs4)c3)nc12
Reply text: 7.66

Inquiry: Supply pKi value. Item: COc1ccc(-c2cccc(C[C@H](O)/C=C/[C@H]3CCC(=O)N3CCSc3nc(C(=O)O)cs3)c2)cc1
Reply text: 8.04

* * *

Recorded pEC50 values for a group of compounds are listed next.
- target.entity: UniProt P43114
- assay: Agonist activity at rat EP4 receptor expressed in CHO cells assessed as cAMP production after 10 mins by radioimmunoassay
In plain terms, pEC50 is the concentration in mol/L turned into minus its base-10 logarithm.

[
  {
    "entry.smiles": "Cc1ccc(-c2cccc(C[C@H](O)/C=C/[C@H]3CCC(=O)N3CCSc3nc(C(=O)O)cs3)c2)cc1C",
    "numeric.value": 7.68
  },
  {
    "entry.smiles": "Cc1ccc(-c2cccc(C[C@H](O)/C=C/[C@H]3CCC(=O)N3CCSc3nc(C(=O)O)cs3)c2)cc1",
    "numeric.value": 7.82
  },
  {
    "entry.smiles": "O=C(O)CCCSCCN1C(=O)CC[C@@H]1/C=C/[C@@H](O)Cc1cccc(-c2nc3ccccc3s2)c1",
    "numeric.value": 8.49
  }
]

// next item, pEC50 requested
Inquiry: Supply pEC50 value. Item: O=C(O)c1csc(SCCN2C(=O)CC[C@@H]2/C=C/[C@@H](O)Cc2cccc(-c3nc4ccccc4s3)c2)n1
Reply text: 7.89

* * *

- target.entity: Prostaglandin E2 receptor EP4 subtype (Mus musculus)
- Sequence (P32240 whole entry): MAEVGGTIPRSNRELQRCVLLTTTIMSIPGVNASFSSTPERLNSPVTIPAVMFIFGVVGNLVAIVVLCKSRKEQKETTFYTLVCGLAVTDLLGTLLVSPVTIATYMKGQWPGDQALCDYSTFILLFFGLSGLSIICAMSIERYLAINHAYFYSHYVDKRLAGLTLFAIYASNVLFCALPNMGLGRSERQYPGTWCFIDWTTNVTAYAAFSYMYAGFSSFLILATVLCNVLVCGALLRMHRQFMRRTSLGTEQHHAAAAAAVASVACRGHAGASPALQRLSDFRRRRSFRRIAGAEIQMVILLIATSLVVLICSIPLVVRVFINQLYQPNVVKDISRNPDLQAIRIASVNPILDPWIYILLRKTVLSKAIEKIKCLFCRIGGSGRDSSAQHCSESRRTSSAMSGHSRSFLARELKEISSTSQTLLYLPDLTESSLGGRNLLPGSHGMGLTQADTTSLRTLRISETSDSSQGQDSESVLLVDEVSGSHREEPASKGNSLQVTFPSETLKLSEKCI
observable: pKi
In plain terms, pKi is the concentration in mol/L turned into minus its base-10 logarithm.

Solved cases below.
[
  {
    "entry.smiles": "O=C(O)CCCSCCN1C(=O)CC[C@@H]1/C=C/[C@@H](O)Cc1cccc(OCc2cccnc2)c1",
    "target.entity": "Prostaglandin E2 receptor EP4 subtype (Mus musculus)",
    "pKi": 8.33
  },
  {
    "entry.smiles": "O=C(O)c1csc(SCCN2C(=O)CC[C@@H]2/C=C/[C@@H](O)Cc2cccc(-c3nc4ccccc4o3)c2)n1",
    "target.entity": "Prostaglandin E2 receptor EP4 subtype (Mus musculus)",
    "pKi": 9.92
  }
]

Inquiry: State pKi (Prostaglandin E2 receptor EP4 subtype (Mus musculus)) of O=C(O)CCCSCCN1C(=O)CC[C@@H]1/C=C/[C@@H](O)Cc1cccc(-c2nc3ccccc3o2)c1 .
Reply text: 9.70
